tested on: MDA-N; test: NCI tumour cell line growth inhibition, 48 h
The source made the active and inactive calls. Cut-off read from the data, not from the text of the source: active = GI50 up to about 1.1 µM and inactive = higher.
Returns: one label drawn from active, inactive

Status in this test for CC[C@@]1(OC(=O)C(N)CCCCN)C(=O)OCc2c1cc1n(c2=O)Cc2cc3ccccc3nc2-1 (some centres undefined) ?
active

Identify the outcome logged in this assay for the molecule shown: O=C(Cc1cccs1)N[C@@H]1C(=O)N2C(C(=O)OC(c3ccccc3)c3ccccc3)=C(CO)CS[C@H]12
inactive

What was the test verdict on CCN(CC)CCNc1ccc2ncn3c4c(OC)ccc(OC)c4c(=O)c1c23 ?
inactive

Which outcome was entered for the molecule CCCNc1c(Cl)cc(Cl)c2[nH]c3ccccc3c(=O)c12 in this test?
inactive

GET /call?item= COc1cc(/C=N/c2ccccn2)cc(OC)c1OC returns the recorded outcome of this test.
inactive

How did this test come out for CC(C)(C)OC(=O)C(C#N)C(=O)c1ccc(C(=O)O)[nH]1 (centres undefined) ?
inactive

Give the logged outcome of this assay for the following molecule: Cc1cc(CCC(=O)NCCNc2c3ccccc3nc3ccccc23)cc(C)c1O[Si](C)(C)C(C)(C)C
active

Any idea what this test logged for CC(=N/NC(=S)N(C)C)/C(=N\NC(=S)N(C)C)c1ccccc1 ?
inactive

Record lookup: outcome of this test for CC1=NN2C(=N)/C(=C/c3ccccc3)C(=O)N=C2S1 ?
inactive

Given CCOC(=O)c1ccc(/N=C2\Sc3nc4ccccc4n3\C2=N\c2ccc(C(=O)OCC)cc2)cc1 , state the outcome it received in this test.
inactive

Please let me know the test result on file for O=C1NC(SSC2=NNC3(C(=O)N2)c2ccccc2-c2ccccc23)=NNC12c1ccccc1-c1ccccc12 .
inactive

Outcome? O=C1c2ccccc2-c2c1c(-c1ccc(F)cc1)nc1ccc3ccccc3c21
inactive

Hi team, can someone confirm the assay call for Oc1nc2nc3ccccc3nc2nc1O ?
inactive

For this molecule, state the assay outcome: Cc1ccc([N+](=O)[O-])cc1NC(=O)C(=O)C1CCC2=C(Sc3ccccc3N2)C1=O (centres undefined)
inactive

====

test system: U-251; assay: NCI tumour cell line growth inhibition, 48 h
The source made the active and inactive calls. Rule as the data show it: active = GI50 up to about 1.1 µM and inactive = higher.
Assign GI50 to each entry below.

The molecule Cc1ccc(S(=O)(=O)C(C#N)c2nc3ccccc3nc2-n2cccn2)cc1 (centres undefined) showed GI50 equal to > 100 µM (inactive)

Reported GI50 ( Cc1c2c(cc3c1[nH]c1ccccc13)C=NCC2 ) = 13.4 µM (inactive)

Field GI50 (entry Cc1cc(=O)oc2c1cc(OCC(=O)OCCN1CCCCC1)c1occ(C)c12 ) reads > 100 µM (inactive)

Kindly note the recorded GI50 for COc1ccc(OC)c(NC(=O)C(=O)C(C(=O)c2ccccc2F)C2OC(=O)c3ccccc32)c1 (centres undefined) , which is 19.1 µM (inactive)

// field: GI50; key: CNC(=S)N/N=C(\C(=N/NC(=S)NC)c1ccccn1)c1ccccn1 ; value = 0.289 µM (active)

// sample CCOC(=O)/C(C#N)=C1/SC(C(=O)N/N=C/c2ccc(OC)cc2)=C(N)N1c1ccccc1 , its GI50 was > 100 µM (inactive)

The molecule listed as Cc1cc(-c2ccc[nH]2)on1 shows GI50 equal to > 100 µM (inactive)

Record NS(=O)(=O)c1ccc(/N=N/c2cnc(O)c(O)c2)cc1 , field GI50: 20.8 µM (inactive)

Input Cc1ccc([N+](=O)[O-])cc1NC(=O)C(=O)C1CCC2=C(Sc3ccccc3N2)C1=O (centres undefined) . Output GI50: > 100 µM (inactive)

Record CC(=O)O[C@H]1C(=O)[C@@]2(C)[C@H]([C@H](OC(=O)c3ccccc3)[C@]3(O)C[C@H](OC(=O)[C@H](O)[C@@H](NC(=O)C(C)(O)C(C)O)c4ccccc4)C(C)=C1C3(C)C)[C@]1(OC(C)=O)CO[C@@H]1C[C@@H]2O (some centres undefined) . Reported GI50: 0.239 µM (active)

Entry under test: CCCCCCCCCCCCCCCCCCNc1ccn(C2OC(COP(=O)(O)O)C(O)C2O)c(=O)n1 (centres undefined) . Its GI50 was > 100 µM (inactive)

Value of measured GI50 for the entry CCc1nc(N)nc(N)c1-c1ccc(Cl)c(N=[N+]=[N-])c1 : 4.69 µM (inactive)

Query C=C1C(=O)OC2C=C(CCC(C)=O)C(C)C(OC(C)=O)CC12 (centres undefined) yields GI50 of 17.1 µM (inactive)

Value of GI50 reported for the molecule COc1nc(Cl)c(Cl)c(Cl)n1.COc1nc(Cl)nc(Cl)c1Cl is 3.78 µM (inactive)

Notebook: Cn1cc(NC(=O)c2cc(NC(=O)CCCCCCC(=O)Nc3cc(C(=O)Nc4cc(C(=O)NCCC(=N)N)n(C)c4)n(C)c3)cn2C)cc1C(=O)NCCC(=N)N , GI50 read as 17.3 µM (inactive)

Recorded GI50 (molecule CCn1c(=O)c2nc(SC)sc2n(-c2ccc(C)cc2)c1=O ): > 100 µM (inactive)

Noted for CCOC(=O)C(=[N+]=[N-])C(=O)CN1C(=O)c2ccccc2C1=O : its GI50 reads > 100 µM (inactive)

Lab note: NC(=O)c1nnn(Cc2cc(Cl)c(C(=O)c3ccc(Cl)cc3)c(Cl)c2)c1N gave GI50 of 18.2 µM (inactive)

// field: GI50; key: COc1c2c(cc3c1-c1c(cc4c(c1OC)OCO4)C1OC3C(C)C1C)OCO2.COc1cc2c(c(OC)c1OC)-c1c(cc3c(c1OC)OCO3)C1OC2C(C)C1C (centres undefined) ; value = > 100 µM (inactive)
